Target: Aβ42 (Homo sapiens)
Sequence (P05067 672-713): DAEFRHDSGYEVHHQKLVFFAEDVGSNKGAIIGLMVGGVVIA
Experiment: Th-T (thioflavin-T) assay of Aβ42 aggregation
Assay type: biochemical
Settings: concentration 20, unit not given; time-course reading M144
ATTRIBUTE MEASURED: Th-T fluorescence of Aβ42 with compound, mean of three wells (Fig. 7a source data)

INSERT INTO results (compound, numeric_readout) VALUES
  ('C=C1CCC2C(C)(CCC=C(C)C)C(O)CCC2(C)C1Cc1c(OC)oc(CO)c(C)c1=O (centres unmarked) [Compound 12]', 2.234),
  ('C=C1CCC2C(C)(CCC=C(C)C)C(O)CCC2(C)C1Cc1c(OC)oc(C)c(C(=O)OC)c1=O (centres unmarked) [Compound 14]', 1.583),
  ('C=C1CC[C@@H]2[C@](C)(CC[C@H]3O[C@H](C=C(C)C)C[C@@]23C)[C@@H]1Cc1c(OC)oc(CO)c(C(=O)OC)c1=O [Compound 21]', 0.9694),
  ('C=C1CC[C@@H]2[C@](C)(CC[C@H]3O[C@H](C=C(C)C)C[C@@]23C)[C@@H]1Cc1c(OC)oc(CO)c(C)c1=O [Compound 20]', 3.009),
  ('C=C1CCC2C(C)(CCC=C(C)C)C(O)CCC2(C)C1Cc1c(OC)oc(CO)c(C(=O)OC)c1=O (centres unmarked) [Compound 13]', 1.02);

----------
Target: Aβ42 (Homo sapiens)
Assay: Th-T (thioflavin-T) assay of Aβ42 aggregation
Assay type: biochemical
Details: head suffix _50 (concentration 50); reading M75
Parameter: Th-T fluorescence of Aβ42 (sheet Fig. 7a), mean of three wells. Scope: all listed entries.
ATTRIBUTE MEASURED: Th-T fluorescence of Aβ42 (sheet Fig. 7a), mean of three wells

INSERT INTO results (compound, experimental_system, numeric_readout) VALUES
  ('C=C1CC[C@@H]2[C@](C)(CC[C@H]3O[C@H](C=C(C)C)C[C@@]23C)[C@@H]1Cc1c(OC)oc(CO)c(C(=O)OC)c1=O [Compound 21]', 'Aβ42 (Homo sapiens)', 0.286),
  ('C=C1CCC2C(C)(CCC=C(C)C)C(O)CCC2(C)C1Cc1c(OC)oc(CO)c(C(=O)OC)c1=O (centres unmarked) [Compound 13]', 'Aβ42 (Homo sapiens)', 0.4709),
  ('C=C1CC[C@@H]2[C@](C)(CC[C@H]3O[C@H](C=C(C)C)C[C@@]23C)[C@@H]1Cc1c(OC)oc(CO)c(C)c1=O [Compound 20]', 'Aβ42 (Homo sapiens)', 2.1032),
  ('C=C1CCC2C(C)(CCC=C(C)C)C(O)CCC2(C)C1Cc1c(OC)oc(CO)c(C)c1=O (centres unmarked) [Compound 12]', 'Aβ42 (Homo sapiens)', 1.421),
  ('C=C1CCC2C(C)(CCC=C(C)C)C(O)CCC2(C)C1Cc1c(OC)oc(C)c(C(=O)OC)c1=O (centres unmarked) [Compound 14]', 'Aβ42 (Homo sapiens)', 2.678);

----------
Target: UniProt:P05067
Assay: Th-T (thioflavin-T) assay of Aβ42 aggregation
Type: biochemical
Conditions: column suffix _20; measurement M23
Returns one of MET or NOT MET; MET when Th-T fluorescence, mean of three wells (Fig. 7a) is >= 0.2.

INSERT INTO measurements (molecule, class) VALUES
  ('C=C1CCC2C(C)(CCC=C(C)C)C(O)CCC2(C)C1Cc1c(OC)oc(C)c(C(=O)OC)c1=O (centres unmarked) [Compound 14]', 'MET'),
  ('C=C1CC[C@@H]2[C@](C)(CC[C@H]3O[C@H](C=C(C)C)C[C@@]23C)[C@@H]1Cc1c(OC)oc(CO)c(C)c1=O [Compound 20]', 'MET'),
  ('C=C1CCC2C(C)(CCC=C(C)C)C(O)CCC2(C)C1Cc1c(OC)oc(CO)c(C)c1=O (centres unmarked) [Compound 12]', 'MET'),
  ('C=C1CCC2C(C)(CCC=C(C)C)C(O)CCC2(C)C1Cc1c(OC)oc(CO)c(C(=O)OC)c1=O (centres unmarked) [Compound 13]', 'NOT MET');
